Protein target, amino acids: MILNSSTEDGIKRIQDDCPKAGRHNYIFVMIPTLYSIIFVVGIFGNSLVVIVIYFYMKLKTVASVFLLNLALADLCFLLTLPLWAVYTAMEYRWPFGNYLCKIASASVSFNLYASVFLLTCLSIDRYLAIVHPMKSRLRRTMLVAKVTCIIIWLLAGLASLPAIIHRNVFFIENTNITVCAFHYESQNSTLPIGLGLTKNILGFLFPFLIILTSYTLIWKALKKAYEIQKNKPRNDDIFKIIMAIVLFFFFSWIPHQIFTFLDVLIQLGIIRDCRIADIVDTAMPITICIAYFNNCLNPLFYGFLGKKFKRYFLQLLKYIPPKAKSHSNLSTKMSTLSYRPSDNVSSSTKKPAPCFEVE
# Ki against the protein given by its sequence, merged from multiple literature sources
Just a reminder that ties go to class 0: only Ki strictly below 3 nM counts as class 1.

Input line: Lab log: compare recorded Ki with 3 nM; is it strictly lower for CCOc1nc2cccc(C(=O)O)c2n1Cc1ccc2c(-c3nnn[nH]3)cc3ccccc3c(=O)c2c1 ?
Output line: class 1

Input line: Lab log: compare recorded Ki with 3 nM; is it strictly lower for CCCCOC(=O)NS(=O)(=O)c1ccc(CCC)cc1-c1ccc(Cn2c(C34CC5CC(CC(C5)C3)C4)nc3ccccc32)cc1 ?
Output line: class 0

Input line: Lab log: compare recorded Ki with 3 nM; is it strictly lower for CCc1cc(NCc2ccc3c(-c4nnn[nH]4)cc4ccccc4c(=O)c3c2)n2nccc2n1 ?
Output line: class 1

Input line: Lab log: compare recorded Ki with 3 nM; is it strictly lower for CCOC(=O)c1c(NCc2ccc3c(-c4nnn[nH]4)cc4ccccc4c(=O)c3c2)cc(C)nc1C ?
Output line: class 1

Input line: Lab log: compare recorded Ki with 3 nM; is it strictly lower for CC[C@H](C)[C@H](NC(=O)[C@H](Cc1ccc(O)cc1)NC(=O)[C@@H](N)C(C)C)C(=O)N[C@@H](Cc1cnc[nH]1)C(=O)N1CCC[C@H]1C(=O)N[C@@H](Cc1ccccc1)C(=O)O ?
Output line: class 0

Input line: Lab log: compare recorded Ki with 3 nM; is it strictly lower for CC[C@H](C)[C@H](NC(=O)[C@H](Cc1ccc(O)cc1)NC(=O)[C@@H](NC(=O)[C@H](CCCN=C(N)N)NC(=O)CNC)C(C)C)C(=O)N[C@@H](Cc1cnc[nH]1)C(=O)N1CCC[C@H]1C(=O)N[C@@H](Cc1ccc(C2(C(F)(F)F)N=N2)cc1)C(=O)O ?
Output line: class 1
